Measurement Description: qHTS assay to identify small molecule antagonists of the estrogen receptor alpha (ER-alpha) signaling pathway using the BG1 cell line in the presence of 0.1 nM 17-beta-estradiol - cell viability counter screen (AID 1259241); note: nearly all actives have a fitted effect of over 40% in size
Test Parameters: VM7Luc4E2 (BG1) viability, CellTiter-Fluor protease, 22 h, 0.1 nM estradiol agonist added; series mostly up to 92.4 µM
Inconclusive results are not listed. Active and inactive are the calls of the source. Calls come from the whole dose curve; as a rule, active = well fitted cell-killing curve with a large enough effect in the repeat runs; inconclusive = weak or mixed curves, or effect the other way; inactive = flat fitted curve, though single readings scatter.
Reply using exactly one outcome from y (active), n (inactive)

{"Compound": "CO/N=C(/C(=O)N[C@@H]1C(=O)N2C(C(=O)O)=C(COC(N)=O)CS[C@H]12)c1ccco1", "Cat": "n"}
{"Compound": "N#CCc1ccc(Cl)cc1Cl", "Cat": "n"}
{"Compound": "CCCCCC[C@@H](O)C/C=C\\CCCCCCCC(=O)OCC(O)CO (stereo not given in full)", "Cat": "n"}

GET /call?item= CCCCOc1ccc(OCCCN2CCOCC2)cc1 returns the recorded outcome of this test.
n

GET /call?item= O=[N+]([O-])c1ccc(O/N=C/c2cc(Br)c(O)c(Br)c2)c([N+](=O)[O-])c1 returns the recorded outcome of this test.
y

GET /call?item= Cc1cccc(O)c1N returns the recorded outcome of this test.
y

GET /call?item= CC(C)C(O)(c1ccc(OC(F)(F)F)cc1)c1cncnc1 (stereo not given) returns the recorded outcome of this test.
n

GET /call?item= CN(C)CCN1C(=O)c2ccccc2N(C)c2ccccc21 returns the recorded outcome of this test.
n

GET /call?item= Oc1cc2c(cc1O)[C@H]1c3ccc(O)c(O)c3OC[C@@]1(O)C2 returns the recorded outcome of this test.
y

GET /call?item= Cc1cscn1 returns the recorded outcome of this test.
n

====

Measurement Description: qHTS assay to identify small molecule antagonists of the estrogen related receptor (ERR) signaling pathway from Tox21 library - cell viability counter screen (AID 1224834); note: nearly all actives have a fitted effect of over 30% in size
Test Parameters: ERR reporter cells viability, CellTiter-Fluor, 17.5 h; series mostly up to 92.4 µM
Procedure: National Center for Advancing Translational Sciences [NCATS] NIH Chemical Genomics Center [NCGC] U.S. Environmental Protection Agency [EPA] National Institutes of Environmental Health Sciences [NIEHS] National Toxicology Program [NTP] […] The ERR cells were dispensed at 2,000 cells/5 ul/well in 1536-well white plates using a Multidrop dispenser. […] After 30-minute incubation at 37 C/5% CO2, the fluorescence intensity in the plates was measured using a ViewLux plate reader.
Inconclusive results are not listed. Calls of active or inactive are those of the source. The call rests on the fitted dose curve; in most records, active means well fitted cell-killing curve with a large enough effect in the repeat runs; inconclusive means weak or mixed curves; inactive means flat fitted curve, though single readings scatter.
Reply using exactly one outcome from active, inactive

# example entries with known answers
{"Molecule": "CCCCCC[C@@H](O)C/C=C\\CCCCCCCC(=O)O", "Cat": "inactive"}
{"Molecule": "CC(=O)Nc1ccc(C)cc1C", "Cat": "inactive"}
{"Molecule": "CC1(C)O[C@@H]2C[C@H]3[C@@H]4C[C@H](F)C5=CC(=O)C=C[C@]5(C)[C@H]4[C@@H](O)C[C@]3(C)[C@]2(C(=O)CO)O1", "Cat": "inactive"}
{"Molecule": "c1ccc2sc(SN(C3CCCCC3)C3CCCCC3)nc2c1", "Cat": "inactive"}

GET /call?item= CO[C@]1(NC(=O)CSC(F)F)C(=O)N2C(C(=O)O)=C(CSc3nnnn3CCO)CO[C@H]21 returns the recorded outcome of this test.
inactive

GET /call?item= CC1=C(CC=O)C(C)(C)CCC1 returns the recorded outcome of this test.
inactive

GET /call?item= C=COCC(C)C returns the recorded outcome of this test.
inactive

GET /call?item= CCOC(=O)C1=C(C)NC(C)=C(C(=O)OC)C1c1cccc(Cl)c1Cl (stereo not drawn) returns the recorded outcome of this test.
inactive

GET /call?item= O=C(OCC(O)CO)c1ccccc1Nc1ccnc2cc(Cl)ccc12 (stereo not drawn) returns the recorded outcome of this test.
active

GET /call?item= CN1CCCN=C1COC(=O)C(O)(c1ccccc1)C1CCCCC1 (stereo not drawn) returns the recorded outcome of this test.
inactive

GET /call?item= CCOC(=O)c1ccc(I)cc1 returns the recorded outcome of this test.
inactive

GET /call?item= C/C=C/C=C/C=O returns the recorded outcome of this test.
inactive

GET /call?item= C=C(C)CCCC(C)CCO (stereo not drawn) returns the recorded outcome of this test.
inactive

====

Measurement Description: A CellTox Green Cytotoxicity Assay to monitor cytotoxicity in HEK293 cells - 32 hour (AID 1224881); note: nearly all actives have a fitted effect of over 40% in size
Test Parameters: CellTox Green fluorescence; series mostly up to 76.8 µM
Records with an inconclusive call do not appear. Calls of active or inactive are those of the source. Calls follow the shape of the dose curve; as a rule, active = well fitted activation curve with a large enough effect in the repeat runs; inconclusive = weak or mixed curves; inactive = flat fitted curve, though single readings scatter.
Reply using exactly one outcome from active, inactive

{"Compound": "COc1cc(Nc2c(C#N)cnc3cc(OCCCN4CCN(C)CC4)c(OC)cc23)c(Cl)cc1Cl", "Cat": "active"}
{"Compound": "Clc1ccc(Nc2nnc(Cc3ccncc3)c3ccccc23)cc1", "Cat": "inactive"}
{"Compound": "CCOC(=O)c1ccc(I)cc1", "Cat": "active"}
{"Compound": "CC1(C)[C@@H](OC(=O)CCC(=O)O)CC[C@]2(C)[C@H]3C(=O)C=C4[C@@H]5C[C@@](C)(C(=O)O)CC[C@]5(C)CC[C@@]4(C)[C@]3(C)CC[C@@H]12", "Cat": "inactive"}
{"Compound": "CCC(C)COC(=O)CC(C)C (configuration not stated)", "Cat": "inactive"}
{"Compound": "O=C(O)c1cccc(-c2noc(-c3ccccc3F)n2)c1", "Cat": "inactive"}

GET /call?item= c1ccc(C[n+]2cccc3ccccc32)cc1 returns the recorded outcome of this test.
inactive

GET /call?item= O=C(OCC(O)CO)c1ccccc1Nc1ccnc2cc(Cl)ccc12 (configuration not stated) returns the recorded outcome of this test.
inactive

GET /call?item= CC(CO)CO returns the recorded outcome of this test.
inactive

GET /call?item= CCCC(=O)C(=O)O returns the recorded outcome of this test.
inactive

GET /call?item= CC1=Nc2ccc3ccccc3c2C1(C)C returns the recorded outcome of this test.
inactive

GET /call?item= O=C1c2ccccc2C(=O)C1c1nc2ccccc2c(Br)c1O returns the recorded outcome of this test.
inactive

====

Measurement Description: A CellTox Green Cytotoxicity Assay to monitor cytotoxicity in HEK293 cells - 8 hour (AID 1224884); note: nearly all actives have a fitted effect of over 35% in size
Test Parameters: CellTox Green fluorescence; series mostly up to 76.8 µM
Description: National Center for Advancing Translational Sciences [NCATS] NIH Chemical Genomics Center [NCGC] U.S. Environmental Protection Agency [EPA] National Institutes of Environmental Health Sciences [NIEHS] National Toxicology Program [NTP] Cell-based models are critical for drug discovery. […] Viable cells produce no appreciable increases in fluorescence. Therefore, the fluorescence signal produced by the binding interaction with dead cell DNA is proportional to cytotoxicity. […]
Records with an inconclusive call do not appear. Activity calls are given as the source filed them. Calls follow the shape of the dose curve; as a rule, active = well fitted activation curve with a large enough effect in the repeat runs; inconclusive = weak or mixed curves; inactive = flat fitted curve, though single readings scatter.
Reply using exactly one outcome from active, inactive

# example entries with known answers
{"Compound": "Cc1ccc(C(C)(C)O)cc1", "Cat": "inactive"}
{"Compound": "O=C(OCC(O)CO)c1ccccc1Nc1ccnc2cc(Cl)ccc12 (stereo not given)", "Cat": "inactive"}
{"Compound": "O=C(O)CCC(=O)C(=O)O", "Cat": "inactive"}

GET /call?item= Brc1cc2ccccc2c2ccccc12 returns the recorded outcome of this test.
inactive

GET /call?item= COc1cc(C(=O)NC2CCN(C)CC2)ccc1Nc1ncc2c(n1)N(C1CCCC1)CC(F)(F)C(=O)N2C returns the recorded outcome of this test.
active

GET /call?item= CC1=C(CC=O)C(C)(C)CCC1 returns the recorded outcome of this test.
inactive

====

Measurement Description: qHTS assay to identify small molecule agonists of the TGF-beta/Smad signaling pathway - cell viability counter screen (AID 1346829); note: nearly all actives have a fitted effect of over 45% in size
Test Parameters: SBE-bla HEK293T viability, CellTiter-Glo luminescence, 5 h; series mostly up to 76.8 µM
Results filed as inconclusive are left out. Active and inactive are the calls of the source. Calls follow the shape of the dose curve; as a rule, active = well fitted cell-killing curve with a large enough effect in the repeat runs; inconclusive = weak or mixed curves, or effect the other way; inactive = flat fitted curve, though single readings scatter.
Reply using exactly one outcome from active, inactive

{"Compound": "Cc1ccccc1N=C(N)Nc1ccccc1C", "Cat": "inactive"}
{"Compound": "O=C=Nc1cccc(C(F)(F)F)c1", "Cat": "inactive"}

GET /call?item= CCCCC(CC)COP(=O)(O)O (stereo unspecified) returns the recorded outcome of this test.
inactive

GET /call?item= CN(C(=O)CN(CCO)CC(=O)N(C)C(C)(C)Cc1ccccc1)C(C)(C)Cc1ccccc1 returns the recorded outcome of this test.
inactive

GET /call?item= CO/N=C(/C(=O)N[C@@H]1C(=O)N2C(C(=O)O)=C(COC(N)=O)CS[C@H]12)c1ccco1 returns the recorded outcome of this test.
inactive

GET /call?item= CCOC(=O)c1ccc(O)c(O)c1 returns the recorded outcome of this test.
inactive

GET /call?item= COc1ccccc1N1CCN(CC(O)COc2cccc3ccccc23)CC1 (stereo unspecified) returns the recorded outcome of this test.
inactive

GET /call?item= FC(F)(F)c1ccccc1Cl returns the recorded outcome of this test.
inactive

GET /call?item= O=c1cc(-c2ccccc2)oc2ccc3ccccc3c12 returns the recorded outcome of this test.
active
